Tested on: RARb:RXRa (NR concentration 270 nM, RXRa partner concentration 90 nM)
experimental-details: PBM binding z-score (relative to random genomic background probes); higher = stronger binding; sequences stand for … in GC…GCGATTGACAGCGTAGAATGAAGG
Recorded PBM binding z-score split into classes low bin (below 2), mid bin (2 to below 4), high bin (4 or more)

Solved entries (count: 6):
Which class is correct for the following sequence? GGAACAAGGGCAAAGTTGATAGCATCTGTCGACG
mid bin

Into which category would you place ACTATTAGTTGAGACGAGAGCAACCGATAGGTTG ?
low bin

# classify by PBM binding z-score band: CGAACTAGGGCAGAACAGGACAGTGAAGGATGAT
low bin

Which of the defined bands does the recorded PBM binding z-score of ACTCGGACGACAAAGGTCAGAGCTACGCCAGTGA sit within?
high bin

Bin this entry: GATACAGAGTCAAGGCCAGAGTACGCGTATTGAT
low bin

Tag the class for CCTACTGGGCCAGAGGTCATTGATTCCAATGCTC
mid bin

Others:
Dear colleague, I would appreciate it if you could identify the bin for CAACCTAGGTCAAGAGGTCAAAGTCCGCTTCCCG and reply at your convenience.
high bin

Sort into band: CGTCCAAGGTCAGAGAGGTCAGTAAATGCCGAGT
high bin

Any idea which band TCATATAGGTAAATGCTCGGTGAAAGTCCGATCT is in?
low bin

Dear colleague, I would appreciate it if you could identify the bin for TAGCCTAGGTCATGGGCTAGTATACCACGCGAAC and reply at your convenience.
mid bin

Could you tell me which band ATCTCTAGGTAACCAAGTTCTGTGAATGCCGAAC belongs to?
low bin

Record CGTCCAAGGTCAGCAGGTCATTGAAAGCGACGTG — which class?
high bin

Which class does CCTCGGAGGACAAGAGGAGGTCAGAGCTGCCAGA fall in?
mid bin

Please indicate the class for CCTTACGGGTCACTCCAGGTTAGAGCATCGGAGT based on its PBM binding z-score.
mid bin

----------
System: PPARg DBDmut IVT, anti-PPARg (DBD mutation: PPARg1 K132A/R137A, NR concentration 270 nM)
experimental-details: PBM binding z-score (relative to random genomic background probes); higher = stronger binding; sequences stand for … in GC…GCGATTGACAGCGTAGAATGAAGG
So I've got a bunch of sequences here, and I need their PBM binding z-score values.

Name the recorded PBM binding z-score of the sequence listed here: CGTCCAAGGTCATAGGTGGTCAGTGAAGACAGAT
-0.648

Return reported PBM binding z-score. Input sequence: TAGCCTAGGTCAGATCGGGCCAGTATTCGCTATA
-1.02

Tell me its PBM binding z-score given TCTTGTAGATCAATATAGGTTAAGAAAGTGCGCT as the entry.
1.13

For every record below, what is its PBM binding z-score?
1. ACTTACGGGTCAACGATGTTATAGCACGCGTATA
2. ATCGAAAGGTCGTGAGGTCAGTATACAGAAAGGC
3. CAAACTATGTCAAGAGGTCAAAGTCCGCTTCCCG
4. GCAGACAGGTGAAACGCAGGTATCTCAGGGTGGC
5. ATCTCTAGGTAATAAGTTCAGTGAAAGAGAGGAC
6. CCTACTGGGCCAAAAGGGTCATTGATGCCGATAA

1.54
0.766
0.601
-0.85
1.43
-1.13
